Below is a list of entries, each paired with its recorded GI50 value.
# assay.protocol: Growth inhibition of human OVCAR3 cells after 48 hrs by SRB assay
# Assay type: functional
# details: OVCAR-3, 48 h

Recorded results for 5 compounds are shown here.
{"compound": "COc1ccc(C(=O)N2c3ccccc3Sc3ccccc32)cc1F", "GI50": "249 nM"}
{"compound": "COc1ccc(C(=O)c2cc(OC)c(OC)c(OC)c2)cc1O [PHENSTATIN]", "GI50": "2.3 nM"}
{"compound": "COc1ccc(C(=O)N2c3ccccc3Sc3ccccc32)c(C(F)(F)F)c1", "GI50": "332 nM"}
{"compound": "O=C(c1ccc2c(c1)Sc1ccccc1N2)c1c[nH]c2ccccc12", "GI50": "360 nM"}
{"compound": "COc1ccc(C(=O)N2c3ccccc3Sc3ccccc32)c(F)c1", "GI50": "418 nM"}

Moving on to another compound below.
Using the record for "COc1ccc(C(=O)N2c3ccccc3Sc3ccccc32)c(OC)c1" , report its GI50. 322 nM
